- assayed.system: mouse TrkB extracellular domain fused to the transmembrane and cytoplasmic domains of human TrkB, expressed … (mouse; human, UniProt Q16620 431-822, limits assumed)
- Sequence (Q16620 other isoform, or with tags, fused parts or gaps limits assumed, form in doubt): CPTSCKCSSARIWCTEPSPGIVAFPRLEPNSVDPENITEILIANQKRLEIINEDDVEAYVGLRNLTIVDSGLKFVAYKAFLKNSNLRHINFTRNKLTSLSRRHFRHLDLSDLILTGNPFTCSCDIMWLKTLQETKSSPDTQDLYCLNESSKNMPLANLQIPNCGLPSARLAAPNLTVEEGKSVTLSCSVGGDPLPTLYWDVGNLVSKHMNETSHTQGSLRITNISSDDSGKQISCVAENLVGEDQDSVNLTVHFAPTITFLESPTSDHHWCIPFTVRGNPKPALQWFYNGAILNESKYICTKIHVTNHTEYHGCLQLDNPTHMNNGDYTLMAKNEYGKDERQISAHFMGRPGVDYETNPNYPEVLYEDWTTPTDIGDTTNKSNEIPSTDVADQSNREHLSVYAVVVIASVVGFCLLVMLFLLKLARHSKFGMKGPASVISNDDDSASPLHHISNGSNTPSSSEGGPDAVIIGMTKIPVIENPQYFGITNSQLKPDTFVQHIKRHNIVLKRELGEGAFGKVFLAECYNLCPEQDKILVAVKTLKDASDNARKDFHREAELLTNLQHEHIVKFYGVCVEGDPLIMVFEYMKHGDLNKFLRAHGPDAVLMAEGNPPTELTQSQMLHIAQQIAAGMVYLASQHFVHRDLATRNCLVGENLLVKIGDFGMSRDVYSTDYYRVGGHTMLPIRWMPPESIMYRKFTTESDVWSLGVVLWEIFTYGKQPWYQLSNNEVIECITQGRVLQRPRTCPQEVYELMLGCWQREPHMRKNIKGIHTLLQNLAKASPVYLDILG
- experimental.details: cell-based or functional assay
measured.quantity: Activation (%), SRE-luciferase, 100 pM BDNF
Note: unit % is implicit; provide only the numeric part.

Solved entries:
binder="M2aM14173N (antibody, mouse IgG2a, kappa, V domains shown, Anti-mouse TrkB antibody from hybridoma, mouse IgG2a Fc; also called surrogate anti-mouse TrkB antibody) VH: NVSLVESGGGSVKPGGSLQLSCAASGFTFSSSAMSWIRQTPEMRLEWVATISDRGSYTYYPDSVEGRFTISRDNAKNILYLQMSHLMSEDTAMYYCARGKGEKAYYTAFFAYWGQGSLVTVSA VL: DIQMTQSPASLSASVGETVTITCRASENIYSYLAWYQQKPGKSPHLLVHNAETLAEGVPSRFSGSGSGPQFSLKINSLQPGDSGTYYCQHHYSSPWTFGGGTKLEIKR" result=74
binder="M2aM14179N (antibody, mouse IgG2a, kappa, V domains shown, Anti-mouse TrkB antibody from hybridoma, mouse IgG2a Fc; also called surrogate anti-mouse TrkB antibody) VH: EVQLQQSGPELVKPGASVKISCKASGYTLTDYYMNWVKQSHGKSLEWIGDINPNNGGTSYNQKFKGKATLTVDKSSSTAYMELRSLTSEDSAVYYCARGAYYSNYFDYWGQGTTLTVSS VL: DIVMSQSPSSLAVSAGEKVTMSCKSSQSLLNSRTRKNYLAWYQQKPGQSPKLLIYWASTRESGVPDRFTGSGSGTDFTLTISSVQAEDLAVYYCKQSYILFTFGSGTQLEIKR" result=75
binder="H1M8037C (antibody, mouse IgG1, kappa, V domains shown, captured by anti-mFc in SPR; also called Comparator; comparator anti-TrkB monoclonal antibody) VH: QVQLVQSGAEVKKPGASVKVSCKASGYTFTNYDIIWVRQAPGQGLEWMGYINPYNDGTKYNEKFKGRVTMTRDTSTSTVYMELSSLRSEDTAVYYCARLLKYRRFRYYAIDYWGQGTTVTVSS VL: DIQMTQSPSSLSASVGDRVTITCRTSENVYSNLAWYQQKPGKAPKLLIYAASNLQSGVPSRFSGSGSGTDYTFTISSLQPEDIATYYCQHFWGSPFTFGQGTKLEIKR" result=69

I am curious: what Activation (%), SRE-luciferase, 100 pM BDNF value has been reported for M2aM14178N (antibody, mouse IgG2a, V domains shown, Anti-mouse TrkB antibody from hybridoma, mouse IgG2a Fc; also called surrogate anti-mouse TrkB antibody) VH: EVQLVESGGGLVKPGGSLKLSCTASGFTFSSYAMSWVRQTPEKRLEWVANISDGGTYTYYPDNIKGRFTISRDNAKNNLYLQMSHLESEDTAMYYCIRGDVYYVRFAYWGQGTLVTVSA VL: QAVVTQESALTTSPGETVTLTCRSSTGAVTSSNHANWVQEKPDHLFTGLIGGTNNRAPGVPARFSGSLIGDKAALTITGAQTEDEAIYFCALWHSNHWVFGGGTKLTVLG ?
67
